meta.source: the METLIN SMRT retention time set (Domingo-Almenara et al. 2019)

experiment: gradient 5% acetonitrile 3 min, to 50% in 2 min, to 85% in 15 min, held 3 min, 100 µL/min; details: column: Zorbax Extend-C18 2.1 x 50 mm; eluents: water / acetonitrile, 0.1% formic acid
reported_property: RP-LC retention time (s)
One number for each entry, in s.

Solved entries (count: 2):
INSERT INTO results (compound, reported_property, units_label, test_result) VALUES
  ('COc1c(C(=O)NCCN2CCCCC2C)sc2cc(Cl)ccc12 (stereo not drawn)', 'RP-LC retention time', 's', 710),
  ('Cc1ccc(-n2nc(C)c3c(=O)n(CC(=O)N4CCN(c5cc(Cl)ccc5C)CC4)ccc32)cc1', 'RP-LC retention time', 's', 1100);

Consider now this further compound.
**Query** Param item = "CCOC(=O)C1CCN(S(=O)(=O)c2cc3c4c(c2)CCC(=O)N4CCC3)CC1" ; retrieve measured RP-LC retention time.
**Result** 769
